# CC50 at 48 h per entry
- Run description: Cytotoxicity against MDCK cells incubated for 48 hrs by MTT assay
- Assay type: toxicity, cell-based, Canis lupus familiaris
- Settings: dog

Examples from the recorded data:
1) O=C(Nc1sc2c(c1C(=O)Nc1ccc(Cl)cc1)CCCCC2)c1ccc([N+](=O)[O-])cc1    > 250 µM
2) O=C(Nc1sc2c(c1C(=O)Nc1ccccn1)CCCCC2)c1ccc(Br)cc1    > 250 µM
3) O=C(Nc1sc2c(c1C(=O)Nc1ccc(F)cc1)CCCCC2)c1ccc([N+](=O)[O-])cc1    > 250 µM
4) O=C(Nc1sc2c(c1C(=O)Nc1ccc(OC(F)(F)F)cc1)CCCCC2)c1ccc([N+](=O)[O-])cc1    > 250 µM

Now consider a different compound.
// query Entry O=C(Nc1sc2c(c1C(=O)Nc1ccccn1)CCCCC2)c1ccc2c(c1)COC2=O has what CC50 at 48 h?
// result > 100 µM

* * *

- System: Influenza B virus
- Run description: Antiviral activity against Influenza B virus Brisbane/60/2008 clinical isolate infected in MDCK cells expressing ST6Gal by crystal violet staining based plaque reduction assay
- Type: functional, organism-based
- Settings: Brisbane/60/2008, MDCK
Metric: pEC50
Notebook: values listed as pEC50 are -log10 of the concentration (mol/L).

// query Query the reported pEC50 for Influenza B virus; item: C[C@@H](c1ccccc1)n1nnnc1[C@H](c1ccsc1)N1CCC(n2c(=O)[nH]c3ccccc32)CC1
// result 6.22

* * *

- Run description: Cytotoxicity against human A549 cells
- Type: toxicity, cell-based
- Settings: A549 cells
Metric: CC50

// query Entry O=C(Nc1sc2c(c1C(=O)Nc1ccccc1O)CCCCC2)c1ccc([N+](=O)[O-])cc1O has what CC50?
// result > 40 µM

* * *

# remaining at 1 h, 50 µM per entry
- Run description: Metabolic stability in human liver microsomes assessed as unmetabolized compound at 50 uM incubated for 1 hr in presence of NADPH by UV/LC-MS analysis
- Assay type: ADME, Microsome
- Settings: read-out: Stability
Give the value, in units of %, as a plain number.

1) O=C(Nc1sc2c(c1C(=O)Nc1ccccc1O)CCCCC2)c1ccc([N+](=O)[O-])cc1O    93.8

// query Entry N#Cc1ccc(C(=O)Nc2sc3c(c2C(=O)Nc2ccccc2O)CCCCC3)cc1 has what remaining at 1 h, 50 µM?
// result 93.3

* * *

- Run description: Binding affinity to RED-NT650-NHS-labeled C-terminal 6His-tagged recombinant Influenza virus PA (239 to 716 residues) extracted from Escherichia coli BL21(DE3)pLysS assessed as dissociation constant by MST assay
- Set-up: species or system unidentified influenza virus
Metric: Kd (µM)
Give the value, in units of µM, as a plain number.

// query Entry N#Cc1ccc(C(=O)Nc2sc3c(c2C(=O)Nc2ccccc2O)CCCCC3)cc1 has what Kd?
// result 5.75

* * *

- Run description: Metabolic stability in rat plasma at 2 mM measured after 1440 mins by UV/LC-MS analysis
- Format: ADME, cell-free
- Settings: read-out: Stability
Metric: remaining at 24 h, 2000 µM

// query Entry N#Cc1ccc(C(=O)Nc2sc3c(c2C(=O)Nc2ccccc2O)CCCCC3)cc1 has what remaining at 24 h, 2000 µM?
// result 81%

Where do the numbers come from? From ChEMBL document CHEMBL5614404.
